Data origin, for the record: patent US8552183B2

- test-summary: DARinv kinetic measurement, tetrazines with dienophile 26
- Assay type: physicochemical
- measurement-parameters: second order

{"chemical-smiles": "COC(=O)CNC(=O)c1nnc(C(=O)NCC(=O)OC)nn1", "rate constant k of DARinv / L/mol/s": 0.0056}
{"chemical-smiles": "COC(=O)c1nnc(C(=O)OC)nn1", "rate constant k of DARinv / L/mol/s": 0.0028}
{"chemical-smiles": "O=C(NCCO)c1nnc(C(=O)NCCO)nn1", "rate constant k of DARinv / L/mol/s": 0.0053}
